# ASSAY TARGET: human Cot/Tpl2 kinase (Homo sapiens, UniProt P41279)
# Construct: human Cot/Tpl2 kinase construct encoding residues 30-398; 6His (N); made in house; host or cells: Sf9 insect cells, baculovirus system (BD Biosciences)
# Sequence (P41279 30-398): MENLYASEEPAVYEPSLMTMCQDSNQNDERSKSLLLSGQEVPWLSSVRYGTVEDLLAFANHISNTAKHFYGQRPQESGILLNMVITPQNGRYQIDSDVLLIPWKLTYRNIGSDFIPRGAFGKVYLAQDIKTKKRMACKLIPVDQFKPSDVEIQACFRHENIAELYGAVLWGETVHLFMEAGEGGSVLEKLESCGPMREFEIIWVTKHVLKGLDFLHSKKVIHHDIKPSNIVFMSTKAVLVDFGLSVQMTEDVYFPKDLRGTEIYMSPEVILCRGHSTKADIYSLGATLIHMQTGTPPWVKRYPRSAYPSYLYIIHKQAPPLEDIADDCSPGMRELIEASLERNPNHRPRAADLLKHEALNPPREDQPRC
# ASSAY EXPLANATION: Tpl2/Cot kinase assay: GST-MEK1 phosphorylation detected by ELISA (DELFIA Eu)
# Type: biochemical
# ASSAY CONTEXT: Tpl2/Cot kinase, GST-MEK1 substrate, 50 uM ATP, 1 h at 30° C.; Table 2
QUANTITY KIND: IC50 (nM)

{"columns": ["COMPOUND", "QUANTITY KIND", "UNITS OF MEASURE", "REPORTED RELATION", "QUANTITATIVE RESULT"],
 "data": [
  ["N#Cc1cnc2c(Cl)cc(NCc3cncc(C4=CCNCC4)c3)cc2c1Nc1ccc(F)c(Cl)c1 [Example 1056]", "IC50", "nM", "=", 880],
  ["CC(C)(C)OC(=O)N1CCC(n2cc(CNc3cc(Cl)c4ncc(C#N)c(NC5CCCC5)c4c3)nn2)CC1 [Example 943]", "IC50", "nM", ">", 3000],
  ["CN1CCCC1CCn1cc(CNc2ccc3ncc(C#N)c(NC4CCCCC4)c3c2)nn1 (centres unmarked) [Example 967]", "IC50", "nM", "=", 460],
  ["CC1(O)CCC(n2cc(CNc3cc(Cl)c4ncc(C#N)c(Nc5ccc(F)c(Cl)c5)c4c3)nn2)CC1 (centres unmarked) [Example 1060]", "IC50", "nM", "=", 45],
  ["N#Cc1cnc2c(Cl)cc(NCc3cn(C4CCN(C(=O)OCCF)CC4)nn3)cc2c1Nc1ccc(F)c(Cl)c1 [Example 982]", "IC50", "nM", "=", 31],
  ["CCN1CCC(O)(c2cncc(CNc3cc(Cl)c4ncc(C#N)c(Nc5ccc(F)c(Cl)c5)c4c3)c2)CC1 [Example 1034]", "IC50", "nM", "=", 400],
  ["N#Cc1cnc2c(Cl)cc(NCc3cn(C4CCN(CC(F)F)CC4)nn3)cc2c1Nc1ccc(F)c(Cl)c1 [Example 1015]", "IC50", "nM", "=", 92],
  ["N#Cc1cnc2c(Cl)cc(NCC3CCCN(C(=O)CNCc4cccnc4)C3)cc2c1Nc1ccc(F)c(Cl)c1 (centres unmarked) [Example 921]", "IC50", "nM", "=", 540],
  ["N#Cc1cnc2c(Cl)cc(NCc3cc(Br)cs3)cc2c1Nc1ccc(F)c(Cl)c1 [Example 1004]", "IC50", "nM", ">", 3000],
  ["CC(C)(C)OC(=O)N1CCCC(n2cc(CNc3cc(Cl)c4ncc(C#N)c(Nc5ccc(F)c(Cl)c5)c4c3)nn2)CC1 (centres unmarked) [Example 1006]", "IC50", "nM", "=", 240],
  ["N#Cc1cnc2c(Cl)cc(NCc3cn(C4CCN(C5CC5)CC4)nn3)cc2c1Nc1ccc(F)c(Cl)c1 [Example 1003]", "IC50", "nM", "=", 17]
]}
